Test system: 624824-186-R-J2-PDC multicell spheroids, viability
Experiment: Anticancer human tumor 624824-186-R-J2-PDC patient-derived colon adenocarcinoma cell line growth inhibition [PI3K]
Conditions: second compound 1 µM; first compound 0.000316 µM; stronger effect = lower value
property name: viability, T/C

[[record]]
molecule = "CC(=O)c1c(C)c2cnc(Nc3ccc(N4CCNCC4)cn3)nc2n(C2CCCC2)c1=O + Cc1nc(NC(=O)N2CCCC2C(N)=O)sc1-c1ccnc(C(C)(C)C(F)(F)F)c1"
target_of_assay = "624824-186-R-J2-PDC multicell spheroids, viability"
meas_value = "96.3%"

[[record]]
molecule = "CC(=O)c1c(C)c2cnc(Nc3ccc(N4CCNCC4)cn3)nc2n(C2CCCC2)c1=O + CC(Nc1ncnc2nc[nH]c12)c1cc2cccc(Cl)c2c(=O)n1-c1ccccc1"
target_of_assay = "624824-186-R-J2-PDC multicell spheroids, viability"
meas_value = "111%"

[[record]]
molecule = "Cn1ncnc1[C@H]1c2n[nH]c(=O)c3cc(F)cc(c23)N[C@@H]1c1ccc(F)cc1 + COc1c(OCCCN2CCOCC2)ccc2c3n(c(=NC(=O)c4cnc(N)nc4)nc12)CCN3"
target_of_assay = "624824-186-R-J2-PDC multicell spheroids, viability"
meas_value = "55.7%"

[[record]]
molecule = "CC(C)n1nc(-c2ccc3oc(N)nc3c2)c2c(N)ncnc21 + CC(Nc1ncnc2nc[nH]c12)c1cc2cccc(Cl)c2c(=O)n1-c1ccccc1"
target_of_assay = "624824-186-R-J2-PDC multicell spheroids, viability"
meas_value = "93.2%"

[[record]]
molecule = "CC(C)n1nc(-c2ccc3oc(N)nc3c2)c2c(N)ncnc21 + Cc1nc(NC(=O)N2CCCC2C(N)=O)sc1-c1ccnc(C(C)(C)C(F)(F)F)c1"
target_of_assay = "624824-186-R-J2-PDC multicell spheroids, viability"
meas_value = "79.4%"

[[record]]
molecule = "Cn1ncnc1[C@H]1c2n[nH]c(=O)c3cc(F)cc(c23)N[C@@H]1c1ccc(F)cc1 + Cc1nc(NC(=O)N2CCCC2C(N)=O)sc1-c1ccnc(C(C)(C)C(F)(F)F)c1"
target_of_assay = "624824-186-R-J2-PDC multicell spheroids, viability"
meas_value = "88.3%"


----------
Below, each of the molecules is paired with its reported IC50 value.
Test system: 624824-186-R-J2-PDC multicell spheroids, viability
Assay: Anticancer human tumor 624824-186-R-J2-PDC cell line growth inhibition [PI3K];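 further: spheroids exposed to agents for 7 days before viability read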
Details: curve of first compound; second compound 0.316 µM
property name: IC50

[[record]]
molecule = "C=CC(=O)N1CCN(c2nc(=O)n(-c3c(C)ccnc3C(C)C)c3nc(-c4c(O)cccc4F)c(F)cc23)C(C)C1 (stereo not given) + CC(Nc1ncnc2nc[nH]c12)c1cc2cccc(Cl)c2c(=O)n1-c1ccccc1"
meas_value = "> 10 µM"

[[record]]
molecule = "CNC(=O)c1ccc(N2C(=S)N(c3ccc(C#N)c(C(F)(F)F)c3)C(=O)C2(C)C)cc1F + Cc1nc(NC(=O)N2CCCC2C(N)=O)sc1-c1ccnc(C(C)(C)C(F)(F)F)c1"
meas_value = "> 10 µM"

[[record]]
molecule = "Cn1cnc2c(F)c(Nc3ccc(Br)cc3Cl)c(C(=O)NOCCO)cc21 + CC(Nc1ccc2c(c1)OCCn1cc(N3C(=O)OCC3C(F)F)nc1-2)C(N)=O"
meas_value = "2.93 µM"

[[record]]
molecule = "C=CC(=O)N1CCN(c2nc(=O)n(-c3c(C)ccnc3C(C)C)c3nc(-c4c(O)cccc4F)c(F)cc23)C(C)C1 (stereo not given) + COc1c(OCCCN2CCOCC2)ccc2c3n(c(=NC(=O)c4cnc(N)nc4)nc12)CCN3"
meas_value = "> 10 µM"

[[record]]
molecule = "CC(=O)c1c(C)c2cnc(Nc3ccc(N4CCNCC4)cn3)nc2n(C2CCCC2)c1=O + CC(Nc1ccc2c(c1)OCCn1cc(N3C(=O)OCC3C(F)F)nc1-2)C(N)=O"
meas_value = "> 0.1 µM"

